DC50 values by entry
- measured-on: Nanoluciferase-BRD9 fusion protein (Homo sapiens (Human))
- Sequence (Q9H8M2 whole entry, the tested form may be a part): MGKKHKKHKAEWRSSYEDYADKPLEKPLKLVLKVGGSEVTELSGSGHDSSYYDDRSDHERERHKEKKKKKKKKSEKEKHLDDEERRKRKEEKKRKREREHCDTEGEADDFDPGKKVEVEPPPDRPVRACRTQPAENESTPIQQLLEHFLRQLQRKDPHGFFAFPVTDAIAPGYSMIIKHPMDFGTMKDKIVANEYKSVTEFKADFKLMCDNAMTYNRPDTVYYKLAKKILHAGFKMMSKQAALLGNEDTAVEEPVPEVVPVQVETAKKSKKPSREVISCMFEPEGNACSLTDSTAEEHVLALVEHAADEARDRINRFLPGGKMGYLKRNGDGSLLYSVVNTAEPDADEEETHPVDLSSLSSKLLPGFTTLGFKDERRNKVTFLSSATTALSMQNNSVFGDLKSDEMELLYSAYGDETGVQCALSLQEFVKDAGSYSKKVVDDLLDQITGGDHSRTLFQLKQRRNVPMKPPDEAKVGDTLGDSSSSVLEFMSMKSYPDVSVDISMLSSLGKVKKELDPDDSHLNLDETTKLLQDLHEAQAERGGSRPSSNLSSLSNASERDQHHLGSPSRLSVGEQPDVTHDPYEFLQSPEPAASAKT
- assay: SYO1 BRD9 NanoLuc degradation assay
- Type: cell-based
- measurement-conditions: Table 5B; SYO-1 cells expressing 3×FLAG-NLuc-BRD9, 6 hours; read-out: SYO1 BRD9-NanoLuc degradation IC50

// below: answered molecules
{"columns": ["molecule", "value"],
 "data": [
  ["COc1cc(-c2cn(C)c(=O)c3cnccc23)cc(OC)c1CN(C)CCn1cc(COC2CN(c3ccc4c(c3)C(=O)N(C3CCC(=O)NC3=O)C4=O)C2)nn1 (centres unmarked) [Compound D277]", "< 0.01 µM"],
  ["COc1cc(-c2cn(C)c(=O)c3cnccc23)cc(OC)c1CN1CCN(C(=O)CCC#Cc2ccc3c(c2)C(=O)N(C2CCC(=O)NC2=O)C3=O)CC1 (centres unmarked) [Compound D199]", "< 0.01 µM"],
  ["COc1cc(-c2cn(C)c(=O)c3cnccc23)cc(OC)c1Cn1cc(CN2CC(Oc3ccc4c(c3)C(=O)N(C3CCC(=O)NC3=O)C4=O)C2)nn1 (centres unmarked) [Compound D270]", "0.01 to 0.1 µM"],
  ["COc1cc(-c2cn(C)c(=O)c3ccnnc23)cc(OC)c1CN1CCC(CN2CCC3(CC2)CC(Oc2ccc4c(c2)CN(C2CCC(=O)NC2=O)C4=O)C3)CC1 (centres unmarked) [Compound D366]", "< 0.01 µM"]
]}

Attention now shifts to the item below.
The reported DC50 of the molecule COc1cc(-c2cn(C)c(=O)c3ccccc23)cc(OC)c1CN1CC(CN2CCC3(CC2)CN(c2ccc4c(c2)CN(C2CCC(=O)NC2=O)C4=O)C3)C1 (centres unmarked) [Compound D360] was < 0.01 µM
